Reported thermal shift delta Tm by item:
- System: LOC_OS01G02750-cb003;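 further: purified Escherichia coli-expressed rice kinase domain construct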
- method-summary: thermal shift delta Tm vs DMSO control; higher = stronger stabilization (binding)
- run-parameters: 12.5 µM; protein concentration 2 µM
parameter-measured: thermal shift delta Tm

[[record]]
compound = "O=C(Nc1nccs1)C(c1cc(F)ccc1O)N1Cc2ccccc2C1=O (centres undefined)"
observed = "0.35 °C"

[[record]]
compound = "CCN(CC)CCNC(=O)c1c(C)[nH]c(/C=C2\\C(=O)Nc3ccc(F)cc32)c1C [Sunitinib Malate]"
observed = "1.04 °C"

[[record]]
compound = "COc1ncc(-c2cc(-c3ncc(CN4C[C@@H](C)O[C@@H](C)C4)o3)c3cn[nH]c3c2)cc1NS(C)(=O)=O"
observed = "3.05 °C"

[[record]]
compound = "Cc1cccc(CC(=O)N2CCc3c2ccc(-c2cn(C)c4ncnc(N)c24)c3F)n1"
observed = "6.31 °C"

[[record]]
compound = "O=c1cc(N2CCOCC2)oc2c(-c3ccccc3)cccc12"
observed = "-0.94 °C"

[[record]]
compound = "CC(=O)c1c(C)c2cnc(Nc3ccc(N4CCNCC4)cn3)nc2n(C2CCCC2)c1=O"
observed = "0.74 °C"

[[record]]
compound = "CC(C)(C)c1cnc(CSc2cnc(NC(=O)C3CCNCC3)s2)o1"
observed = "10.9 °C"

[[record]]
compound = "COc1cc(N2CCC(N(C)C)CC2)ccc1Nc1ncc(Cl)c(Nc2ccccc2P(C)(C)=O)n1"
observed = "-0.8 °C"

[[record]]
compound = "O=C(c1ccc(F)c(F)c1Nc1ccc(I)cc1F)N1CC(O)([C@@H]2CCCCN2)C1 [Cobimetinib (GDC-0973, RG7420)]"
observed = "1.67 °C"

[[record]]
compound = "CC[C@@H]1C(=O)N(C)c2cnc(Nc3ccc(C(=O)NC4CCN(C)CC4)cc3OC)nc2N1C1CCCC1"
observed = "-0.86 °C"

[[record]]
compound = "CCn1c2ccccc2c2cc(Nc3ccnc(NCCCN4CCOCC4)n3)ccc21"
observed = "-0.06 °C"

[[record]]
compound = "CC(C)CC(=O)Nc1n[nH]c2c1CN(C(=O)C1CCN(C)CC1)C2(C)C"
observed = "1.36 °C"

[[record]]
compound = "CC[C@H](CO)Nc1nc(NCc2ccccc2)c2ncn(C(C)C)c2n1 [Roscovitine (Seliciclib,CYC202)]"
observed = "0 °C"

[[record]]
compound = "O=C(O)c1ccc(-c2c[nH]c3ncc(-c4ccccc4)cc23)cc1C1CCCC1"
observed = "4.25 °C"

[[record]]
compound = "COc1cc2ncnc(Nc3cccc(Cl)c3)c2cc1OC [AG-1478 (Tyrphostin AG-1478)]"
observed = "1.82 °C"

[[record]]
compound = "CC1(COc2ccc3c(c2)ncn3-c2ccc3cccc(N4CCC(N)CC4)c3n2)COC1"
observed = "7.03 °C"

[[record]]
compound = "O=C1Nc2ccc(I)cc2/C1=C/c1cc(Br)c(O)c(Br)c1"
observed = "0.5 °C"

[[record]]
compound = "Cc1nc2ccc(-n3ncc(C(=O)c4cc5ccccc5[nH]4)c3N)cc2[nH]1"
observed = "1.12 °C"

[[record]]
compound = "Cn1cc(C2=C(c3ccc(Cl)cc3Cl)C(=O)NC2=O)c2ccccc21"
observed = "13.7 °C"

